Assay: Pharmacokinetic studies, single oral dose
Type: in vivo, Wistar Rats
Conditions: female, Wistar, rat, plasma; rats, 100 mg/kg single oral dose
quantityKind: Cmax (ng/mL)
Answer in ng/mL, number only, no unit symbol.

stdin: Supply reported Cmax belonging to this compound: COc1cc(C=CC(=O)CC(=O)C=Cc2ccc(O)c(OC)c2)ccc1O [Free curcumin]
stdout: 1.79

----------
Experiment: Degradation studies (hydrolytic stability at pH 1.2, 6.8, 7.4 and 9)
Type: physicochemical
Conditions: alkaline borate buffer pH 9, pH 9
quantityKind: half-life at 5 μg/ml (min)
Expressed in min, but write only the number.

stdin: Kindly indicate its recorded half-life at 5 μg/ml. Item: COc1cc(C=CC(=O)CC(=O)C=Cc2ccc(O)c(OC)c2)ccc1O [Free curcumin]
stdout: 40.1

Measured values drawn from patent US12599572B2 for this set.
